Test system: SF-295 CNS
assay-details: NCI-60 one-dose screen, 48 h (100 = growth as untreated, 0 = no growth, -100 = all killed)
condition-notes: 10 µM unless noted
Compounds without any hit were thinned out: in the full panel of roughly 83,000, 20% have a hit.
Consider the following compounds; for each one, report its growth.
Answers are plain numbers, in %.

Examples from the recorded data:
compound	subject-of-test	growth, %
Cc1cnc(SCc2ccc(Cl)cc2Cl)nc1Nc1ccc(Cl)c(Cl)c1	SF-295 CNS	92.8
COc1ccc(-c2cc(-c3nnc(SCC(=O)Nc4ccc(/C(C)=N\O)cc4)n3-c3ccccc3)c3cc(OC)ccc3n2)cc1	SF-295 CNS	80.3
CN1C(=O)c2cc(Cl)nc3c(NC(=O)c4cccc(Cl)c4)c(Cl)c(NC(=O)c4cccc(Cl)c4)c1c23	SF-295 CNS	88.1
COC(=O)/C=C1\SC(=Nc2ccc(C(F)(F)F)cc2)N(CCc2c[nH]c3ccccc23)C1=O	SF-295 CNS	-81.4

Exam item: Param item = Cc1ccccc1NC(=O)c1sc2nc(C)c(C(C)O)cc2c1N (stereo not given) ; retrieve measured growth.
Marked response: 39.5

* * *

Test system: SN12C renal
assay-details: NCI-60 one-dose screen, 48 h (100 = growth as untreated, 0 = no growth, -100 = all killed)
condition-notes: 10 µM unless noted
The panel holds about 83,000 compounds, 20% with a hit somewhere; the sample as a whole holds those more often.
Task for the reader: assign each of the following compounds its reported growth.
One number for each entry, in %.

structure	subject-of-test	unit	reading
C=C1C(=O)O[C@H]2[C@H]1CC/C(COC(=O)/C=C/c1cccnc1)=C\CC[C@@]1(C)O[C@@H]21	SN12C renal	%	16.8
Cc1ccc(C(=O)O)o1	SN12C renal	%	110
C#CCOC(=O)[C@]1(C)CCC[C@]2(C)[C@H]3C[C@H]4C(C(C)C)=C[C@]3(CC[C@H]21)[C@@H]1C(=O)CCC(=O)[C@@H]14	SN12C renal	%	86.8
C=C(C)[C@@H]1CC[C@]2(C(=O)O)CC[C@]3(C)[C@H](CC[C@@H]4[C@@]5(C)C[C@@H](CC#Cc6ccc(Cl)cc6)C(=O)C(C)(C)[C@@H]5CC[C@]43C)[C@@H]12	SN12C renal	%	27.8

Turning now to a further record.
Exam item: Using the record for CSc1nc(-c2ccc(F)cc2)c(C#N)c(N2CCOCC2)n1 , report its growth.
Marked response: 98.8

* * *

System: CCRF-CEM leukemia
assay-details: NCI-60 one-dose screen, 48 h (100 = growth as untreated, 0 = no growth, -100 = all killed)
condition-notes: 10 µM unless noted
This is part of a sample that, as a whole, favours compounds with a hit. Of some 83,000 tested, about 20% had one in any assay. Calls of active or inactive are those of the source. Rule for the calls: active = growth percent below 10; inactive = the rest.
parameter-measured: growth

Before answering, review these 3 worked examples.
compound	growth
O=C1Nc2ccc(Cl)cc2/C1=N/c1nc(-c2ccc(F)cc2)cs1	11.1% (inactive)
COC(=O)/C=C1\SC(=Nc2ccc(F)cc2)N(CCc2c[nH]c3ccccc23)C1=O	68.2% (inactive)
O=C1NN(c2ccccc2)C(c2ccc3c(c2)OCO3)N2CCC[C@@H]12 (some centres undefined)	108% (inactive)

// next entry
Exam item: Given the entry COc1cccc(NC(=O)Nc2ccc(Oc3ncnc4[nH]c(C)c(C)c34)cc2)c1 , report its measured growth.
Marked response: 76.4% (inactive)

* * *

Tested on: MOLT-4 leukemia
assay-details: NCI-60 one-dose screen, 48 h (100 = growth as untreated, 0 = no growth, -100 = all killed)
condition-notes: 10 µM unless noted
About 83,000 compounds went through this panel and 20% of them were active in at least one assay; those are over-represented in the sample as a whole.
parameter-measured: growth (%)
Answers are plain numbers, in %.

// known answers, use as guide
structure	reading
C=C1C(=O)O[C@H]2[C@H]1CC/C(COC(=O)c1cccnc1)=C\CC[C@@]1(C)O[C@@H]21	71.5
Cc1cccc(C)c1NCc1nnc(-c2ccco2)o1	88.8
COc1ccc(/C=C/C(=O)Nc2ncnc3nc[nH]c23)cc1	68.9
NC(=N\N=C\c1ccccc1O)/C(N)=N/N=C/c1ccccc1O	68.3

Now examine the next entry.
Exam item: Report growth for O=C(NC[C@H](O)CN1CCc2ccccc2C1)c1cc(NC2COC2)ncn1 tested on MOLT-4 leukemia.
Marked response: 88

* * *

System: TK-10 renal
assay-details: NCI-60 one-dose screen, 48 h (100 = growth as untreated, 0 = no growth, -100 = all killed)
condition-notes: 10 µM unless noted
The panel holds about 83,000 compounds, 20% with a hit somewhere; the sample as a whole holds those more often.
parameter-measured: growth (%)
Numbers only, in %.

molecule	growth, %
O=[N+]([O-])c1ccc(Oc2ccc(-c3ccccc3)cc2)cc1	88.5
COc1ccc(C(=O)c2cc(OC)c(OC)c(OC)c2)cc1OC(=O)C(Cl)(Cl)Cl	65.6
COc1ccc(-c2cn(-c3ccc(Cl)cc3)c(=S)[nH]2)cc1OC	72.8
O=C(Nc1cc(Nc2ncccc2-c2ncnc3nc[nH]c23)ccc1F)c1cc(C(F)(F)F)cc(C(F)(F)F)c1	-16.9
CC(=O)O[C@@H]1C[C@]2(C)[C@H]3[C@H](O)C[C@@H]4C5=CC(C)(C)CC[C@]5(C)CC[C@@]4(C)[C@]3(C)CC[C@H]2C(C)(C)[C@H]1O	104
COc1ccc(/C=C/C(=O)Nc2ncnc3nc[nH]c23)cc1	103

// for each molecule below, give its growth
1. C[C@H]1[C@H](C)CC[C@]2(C(=O)OCCOCCOCC[P+](c3ccccc3)(c3ccccc3)c3ccccc3)CC[C@]3(C)C(=CC[C@@H]4[C@@]5(C)CC[C@H](OC(=O)C(Cl)Cl)C(C)(C)[C@@H]5CC[C@]43C)[C@H]12
2. COc1ccc(C2C(c3ccccc3)C(=O)N2c2cc(OC)c(OC)c(OC)c2)cc1I (configuration not stated)
3. CN(C)C(CNc1oc(-c2cccc3ccccc23)nc1C#N)c1ccco1 (configuration not stated)
4. Cc1nnc(/N=C2\NC(=O)/C(=C/c3ccsc3)S2)s1
5. C=C(C)[C@@H]1CC[C@]2(C(N)=O)CC[C@]3(C)[C@H](CC[C@@H]4[C@@]5(C)CCCNC(C)(C)[C@@H]5CC[C@]43C)[C@@H]12
6. Cc1c(Cl)cccc1NC(=O)c1sc2nc3c(cc2c1N)COCC3

Marked response:
[12.7, 75.1, 109, 96.7, 107, 57]

* * *

Tested on: SK-MEL-2 melanoma
assay-details: NCI-60 one-dose screen, 48 h
condition-notes: 10 µM unless noted
Procedure: Growth inhibition of the SK-MEL-2 human tumor cell line is measured as a screen for anti-cancer activity. Cells are grown in 96 well plates and exposed to the test compound for 48 hours. Compounds are tested at a single concentration, which is 10^-5 M for most compounds. The reported endpoint is percent growth (GI% or GIPRCNT), where numbers from 0 - 100% represent growth inhibition, and numbers from -100% - 0 represent cell death. For example, a value of 40 represents 60% growth inhibition. […]
This is part of a sample that, as a whole, favours compounds with a hit. Of some 83,000 tested, about 20% had one in any assay. Active and inactive are the calls of the source. Rule for the calls: active = growth percent below 10; inactive = the rest.
// classify into active, inactive

Would you please look over these solved cases?
compound	discrete-label
CCCCCCC/C=C/[C@H]1O[C@]23C(=O)C[C@@]4(C[C@@H](OC5OC(CO)C(O)C(O)C5O)C[C@@H]4[C@H]2C=C1C)OC3=O (stereo partly drawn)	active
O=C(O)c1cc(N=Nc2ccc(-c3ccc(N=Nc4c(S(=O)(=O)O)cc5ccc(Nc6ccccc6)cc5c4O)cc3)cc2)ccc1O	inactive
C#Cc1ccccc1NC(=O)c1sc2nc3c(cc2c1N)CCCCC3	inactive

Exam item: # lookup: test call for Cc1cnc(SCc2ccc(Cl)cc2)[nH]c1=S
Marked response: inactive

Exam item: Now the compound CCCCn1c2cc(OCc3cn(-c4ccc(Cl)cc4)nn3)ccc2c2ccnc(C)c21
Marked response: inactive

Exam item: Try FC(F)(F)c1ccc2c(Nc3cccc(C4CC(c5ccccc5)=NN4c4ccc(Cl)cc4)c3)ccnc2c1 (stereo not drawn) next.
Marked response: inactive

Exam item: Then CCOC(=O)c1c(C)nc2c(c1N)CC(=O)N2CCc1ccccc1 ?
Marked response: inactive

Exam item: Input COc1cc2c(Nc3ccc(NC(=O)Nc4ccc(Cl)c(C(F)(F)F)c4)c(Cl)c3)ncnc2cc1OCCCN1CCN(C)CC1
Marked response: active

* * *

Provide the reported growth of each item.
Tested on: HT29 colon
assay-details: NCI-60 one-dose screen, 48 h (100 = growth as untreated, 0 = no growth, -100 = all killed)
condition-notes: 10 µM unless noted
Compounds without any hit were thinned out: in the full panel of roughly 83,000, 20% have a hit.
One number for each entry, in %.

structure	parameter-measured	unit	reading
COC(=O)/C=C1\SC(=Nc2cccc(OC)c2)N(CCc2c[nH]c3ccccc23)C1=O	growth	%	12.2
COc1cc(C(=O)Nc2cc(O)c(C/C=C(\C)CCC=C(C)C)c(O)c2)cc2c1O[C@]1(C)CC[C@@H](O)C(C)(C)[C@H]1C2	growth	%	-25.5

Now consider the entry below.
Exam item: Consider the compound C#CCOC(=O)[C@]1(C)CCC[C@]2(C)[C@H]3C[C@H]4C(C(C)C)=C[C@]3(CC[C@H]21)[C@@H]1C(=O)CCC(=O)[C@@H]14 and give its measured growth.
Marked response: 71.1
